tested on: KURAMOCHI; assay: drug sensitivity score (DSS2) on cancer cell count; higher = more sensitive; extreme values may be limits of the assay; conditions: co-cultured fibroblast: BJHTERT; 72 h
Below, each entry is listed with its recorded drug sensitivity score.
measuredMetric: drug sensitivity score (DSS)

INSERT INTO assay_data (compound, numericreadout) VALUES
  ('O=C(Nc1cc(Cl)cc2c1[nH]c1cnccc12)c1cccnc1', 0.6),
  ('CNC(=O)c1cccc2cc(Oc3ccnc4cc(OCC5(N)CC5)c(OC)cc34)ccc12', 4.3),
  ('CN(C)Cc1ccc(S(=O)(=O)n2ccc(/C=C/C(=O)NO)c2)cc1', 11),
  ('Cc1nc2cccc(N)c2c(=O)n1C1CCC(=O)NC1=O (stereo not given)', 0),
  ('CC[C@H](C)C(=O)O[C@H]1C[C@@H](C)C=C2C=C[C@H](C)[C@H](CC[C@@H]3C[C@@H](O)CC(=O)O3)[C@H]21', 0.3),
  ('FC(F)c1nc2ccccc2n1-c1nc(N2CCOCC2)nc(N2CCOCC2)n1', 15),
  ('Cc1c(-c2c(-c3ccc(F)o3)sc3ncnc(O[C@H](Cc4ccccc4OCc4ccnn4CC(F)(F)F)C(=O)O)c23)ccc(OCCN2CCN(C)CC2)c1Cl', 0),
  ('Cc1cc(C)c(CNC(=O)c2cc(-c3ccc(CN4CCOCC4)cc3)cc3c2cnn3C2CCCC2)c(=O)[nH]1', 0),
  ('Cc1cc(Nc2cc(N3CCN(C)CC3)nc(Sc3ccc(NC(=O)C4CC4)cc3)n2)n[nH]1', 22),
  ('CC(C)c1c(C(=O)Nc2ccccc2)c(-c2ccccc2)c(-c2ccc(F)cc2)n1CC[C@@H](O)C[C@@H](O)CC(=O)O', 3.1),
  ('COc1cc([C@@H]2c3cc4c(cc3[C@@H](O[C@@H]3O[C@@H]5CO[C@@H](C)O[C@H]5[C@H](O)[C@H]3O)[C@H]3COC(=O)[C@H]23)OCO4)cc(OC)c1O [Etoposide]', 11.7),
  ('Cc1cn(-c2cc(NC(=O)c3ccc(C)c(Nc4nccc(-c5cnccn5)n4)c3)cc(C(F)(F)F)c2)cn1', 0),
  ('COc1ccc(C[C@H](NC(=O)[C@H](C)NC(=O)CN2CCOCC2)C(=O)N[C@@H](Cc2ccccc2)C(=O)C2(C)CO2)cc1 (stereo in doubt)', 15.7),
  ('COC[C@H](NC(=O)c1cnc(C)s1)C(=O)N[C@@H](COC)C(=O)N[C@@H](Cc1ccccc1)C(=O)[C@@]1(C)CO1', 15.7),
  ('O=C(c1ccc(F)c(F)c1Nc1ccc(I)cc1F)N1CC(O)([C@@H]2CCCCN2)C1', 11.5);

* * *

test system: OVCAR8; test: drug sensitivity score (DSS2) on cancer cell count; higher = more sensitive; extreme values may be limits of the assay; conditions: co-cultured fibroblast: BJHTERT; 72 h
measuredMetric: drug sensitivity score (DSS)

INSERT INTO measurements (structurestring, measurementtarget, numericreadout) VALUES
  ('CS(=O)(=O)CCNCc1ccc(-c2ccc3ncnc(Nc4ccc(OCc5cccc(F)c5)c(Cl)c4)c3c2)o1', 'OVCAR8', 0.7),
  ('Cc1ccc(C(=O)Nc2cccc(C(F)(F)F)c2)cc1Nc1nc(-c2cccnc2)nc2c1cnn2C', 'OVCAR8', 0),
  ('Nc1ncnc2c1c(COc1cccc(Cl)c1)nn2C1CCOCC1', 'OVCAR8', 0),
  ('Cc1ncc(-c2ccnc(Nc3ccc(S(C)(=O)=O)cc3)n2)n1C(C)C', 'OVCAR8', 19),
  ('CC(C)(O)CC(=O)NCCn1ccc2ncnc(Nc3ccc(Oc4cccc(C(F)(F)F)c4)c(Cl)c3)c21', 'OVCAR8', 0.2);
